Hey, just so you know, these numbers are from patent US20240279318A1.

# TARGET: PTP4A1 peptide/HLA-A*02:01 complex (recombinant) (human)
# ASSAY_PROCEDURE: SPR
RECORDED_ENDPOINT: binding result

1) AS170036 VL1VH1-VHG108E (scFv) scFv: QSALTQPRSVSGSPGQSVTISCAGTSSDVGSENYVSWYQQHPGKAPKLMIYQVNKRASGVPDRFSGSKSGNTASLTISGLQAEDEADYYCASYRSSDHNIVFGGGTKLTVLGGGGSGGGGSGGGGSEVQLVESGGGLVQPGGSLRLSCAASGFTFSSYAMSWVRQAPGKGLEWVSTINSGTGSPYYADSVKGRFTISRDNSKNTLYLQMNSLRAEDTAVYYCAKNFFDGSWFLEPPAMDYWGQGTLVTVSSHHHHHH = no binding
2) AS170036 VL1VH1-VHG56F (scFv) scFv: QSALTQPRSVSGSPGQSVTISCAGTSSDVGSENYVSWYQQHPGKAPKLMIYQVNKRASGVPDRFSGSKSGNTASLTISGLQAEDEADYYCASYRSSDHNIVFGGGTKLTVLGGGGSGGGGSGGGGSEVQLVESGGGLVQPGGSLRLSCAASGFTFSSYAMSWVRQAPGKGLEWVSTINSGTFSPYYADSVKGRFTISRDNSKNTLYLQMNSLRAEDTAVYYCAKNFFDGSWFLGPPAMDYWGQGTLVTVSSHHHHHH = no binding
3) AS170036 VL1VH1-VHG108N (scFv) scFv: QSALTQPRSVSGSPGQSVTISCAGTSSDVGSENYVSWYQQHPGKAPKLMIYQVNKRASGVPDRFSGSKSGNTASLTISGLQAEDEADYYCASYRSSDHNIVFGGGTKLTVLGGGGSGGGGSGGGGSEVQLVESGGGLVQPGGSLRLSCAASGFTFSSYAMSWVRQAPGKGLEWVSTINSGTGSPYYADSVKGRFTISRDNSKNTLYLQMNSLRAEDTAVYYCAKNFFDGSWFLNPPAMDYWGQGTLVTVSSHHHHHH = no binding
